Assay: Growth inhibition of human MRC5 cells after 72 hrs by resazurin or MTT assay
Assay type: cell-based
Reported GI50 at 72 h is given for each of the following molecules.

> print(dat)
                                  smilesstr  testresult
1  CC(=O)c1c(C)c2cnc(Nc3ccc(N4CCNCC4)cn3)nc2n(C2CCCC2)c1=O     > 10 µM

Now consider a different molecule.
Measured GI50 at 72 h, Cc1nc(NC2CCCC2)sc1-c1ccnc(Nc2ccc(N3CCOCC3)cn2)n1 : > 10 µM

* * *

Tested on: MDA-MB-453
Assay: Growth inhibition of human MDA-MB-453 cells after 72 hrs by MTT assay
Type: functional
Settings: MDA-MB-453, 72 h
In this section, each of the molecules is paired with its reported GI50.
Numbers only here, please. The scale is nM.

> print(dat)
                                  smilesstr  testresult
1  Cc1nc(NC(C)C)sc1-c1ccnc(Nc2ccc(N3CCN(C)CC3)cn2)n1         618

Cc1nc(Nc2ccccc2)sc1-c1ccnc(Nc2ccc(N3CCNCC3)cn2)n1 yielded GI50 of 279

Kindly note the recorded GI50 for CCN1CCN(c2ccc(Nc3ncc(F)c(-c4sc(NC5CCCC5)nc4C)n3)nc2)CC1 , which is 66

Form: molecule = Cc1nc(Nc2ccccc2)sc1-c1ccnc(Nc2ccc(N3CCN(C)CC3)cn2)n1 ; GI50 = 494

Form field GI50, entry Cc1nc(NC2CCCC2)sc1-c1nc(Nc2ccc(N3CCNCC3)cn2)ncc1F : 780

* * *

Biological target: Cyclin-dependent kinase 7/ cyclin H (Homo sapiens)
Assay: Inhibition of CDK7/cyclin H (unknown origin) in presence of [gamma-33P]-ATP […]
Format: protein-complex assay
Settings: read-out: Ki(app)
Quick rule for you: Ki under 900 nM gets 1 (yes), anything else gets 0 (no).

As a guide, the following entries are already answered.
> print(dat)
                                  smilesstr  assignedcategory
1  Cc1nc(NC2CCCC2)sc1-c1ccnc(Nc2ccc(N3CCN(C)CC3)cn2)n1           1 (yes)
2  Cc1nc(NC(C)C)sc1-c1ccnc(Nc2ccc(N3CCNCC3)cn2)n1           1 (yes)
3  CCN1CCN(c2ccc(Nc3ncc(F)c(-c4sc(NC5CCCC5)nc4C)n3)nc2)CC1           1 (yes)

Q: Report whether reported Ki is lower than 900 nM (strictly) for Cc1nc(NC(C)C)sc1-c1ccnc(Nc2ccc(N3CCN(C)CC3)cn2)n1
Result: 1 (yes)

Q: Find out if reported Ki for Cc1nc(NC2CCCC2)sc1-c1ccnc(Nc2ccc(N3CCNCC3)cn2)n1 is less than 900 nM
Result: 0 (no)

Q: Given Cc1nc(NC2CCCC2)sc1-c1nc(Nc2ccc(N3CCNCC3)cn2)ncc1F , is recorded Ki strictly lower than 900 nM?
Result: 1 (yes)

Q: Lab note: Ki threshold 900 nM. Does this compound come in strictly under it? Cc1nc(NC2CCCC2)sc1-c1nc(Nc2ccc(N3CCCNCC3)cn2)ncc1F
Result: 1 (yes)

Q: # TODO verify Ki < 900 nM strictly for this compound: Cc1nc(NC(C)C)sc1-c1ccnc(Nc2ccc(N3CCCNCC3)cn2)n1
Result: 0 (no)

* * *

System: MDA-MB-453
Test: Growth inhibition of human MDA-MB-453 cells after 72 hrs by MTT assay
Type: functional
Conditions: MDA-MB-453, 72 h
# GI50 per record follows
Entry rule: numbers only, all in nM.

> print(dat)
                                  smilesstr  readingunit  testresult
1  Cc1nc(NC2CCCC2)sc1-c1nc(Nc2ccc(N3CCC(N(C)C)CC3)cn2)ncc1F           nM         356
2  Cc1nc(NC2CCCC2)sc1-c1nc(Nc2ccc(N3CCN(S(C)(=O)=O)CC3)cn2)ncc1F           nM        2810
3  CN1CCN(c2ccc(Nc3nccc(-c4sc(NC5CCCC5)nc4C(F)(F)F)n3)nc2)CC1           nM         420
4  Cc1nc(NC2CCCC2)sc1-c1ccnc(Nc2ccc(N3CCNCC3)cn2)n1           nM          70
5  Cc1nc(NC(C)C)sc1-c1ccnc(Nc2ccc(N3CCOCC3)cn2)n1           nM         115
6  Cc1nc(NC2CCCC2)sc1-c1ccnc(Nc2ccc(N3CCC(N)CC3)cn2)n1           nM          55

Entry Cc1nc(NC2CCCC2)sc1-c1ccnc(Nc2ccc(N3CCN(S(C)(=O)=O)CC3)cn2)n1 , GI50 reported as 215

Noted for CC(=O)N1CCN(c2ccc(Nc3nccc(-c4sc(NC(C)C)nc4C)n3)nc2)CC1 : its GI50 reads 344

Summary for this compound, Cc1nc(N(C)C2CCCC2)sc1-c1ccnc(Nc2ccc(N3CCNCC3)cn2)n1 : GI50 is 402

* * *

Target: Cyclin-dependent kinase 7/ cyclin H (Homo sapiens, UniProt P50613)
Sequence (P51946 whole entry): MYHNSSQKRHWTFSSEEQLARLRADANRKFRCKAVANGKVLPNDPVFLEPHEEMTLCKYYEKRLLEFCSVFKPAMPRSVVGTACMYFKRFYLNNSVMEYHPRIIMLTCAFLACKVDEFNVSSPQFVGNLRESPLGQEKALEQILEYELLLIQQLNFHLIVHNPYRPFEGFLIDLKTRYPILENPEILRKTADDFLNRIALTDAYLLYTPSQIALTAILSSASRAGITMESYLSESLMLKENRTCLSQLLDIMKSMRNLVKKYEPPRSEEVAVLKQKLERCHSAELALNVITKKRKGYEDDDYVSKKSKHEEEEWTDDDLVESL
Sequence (P50613 whole entry): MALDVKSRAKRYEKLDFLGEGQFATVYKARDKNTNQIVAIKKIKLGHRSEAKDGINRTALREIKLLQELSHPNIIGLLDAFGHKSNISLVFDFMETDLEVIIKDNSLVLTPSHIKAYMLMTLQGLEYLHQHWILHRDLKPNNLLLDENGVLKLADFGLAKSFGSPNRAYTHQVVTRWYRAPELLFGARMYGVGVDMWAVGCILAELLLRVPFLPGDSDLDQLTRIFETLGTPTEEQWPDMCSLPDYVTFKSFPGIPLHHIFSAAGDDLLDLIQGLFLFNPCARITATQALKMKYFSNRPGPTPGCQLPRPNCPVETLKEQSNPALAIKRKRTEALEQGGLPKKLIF
Assay: Inhibition of CDK7/cyclin H (unknown origin) in presence of [gamma-33P]-ATP […]
Details: read-out: Ki(app)
valueType: Ki (nM)
Report the figure in nM without appending any unit label.

> print(dat)
                                  smilesstr  testresult
1  Cc1nc(NC2CCCC2)sc1-c1ccnc(Nc2ccc(N3CCCNCC3)cn2)n1         282
2  O=CN1CCN(c2ccc(Nc3nccc(-c4sc(NC5CCCC5)nc4C(F)(F)F)n3)nc2)CC1        1900
3  CC(=O)N1CCN(c2ccc(Nc3nccc(-c4sc(NC5CCCC5)nc4C(F)(F)F)n3)nc2)CC1        2610
4  Cc1nc(NC2CCCC2)sc1-c1ccnc(Nc2ccc(N3CCC(N)CC3)cn2)n1        1190
5  CC(=O)N1CCN(c2ccc(Nc3nccc(-c4sc(NC5CCCC5)nc4C)n3)nc2)CC1        3450

Recorded Ki for CCN1CCN(c2ccc(Nc3nccc(-c4sc(NC5CCCC5)nc4C)n3)nc2)CC1 on Cyclin-dependent kinase 7/ cyclin H (Homo sapiens, UniProt P50613) was 780

* * *

System: MDA-MB-453
Assay: Growth inhibition of human MDA-MB-453 cells after 72 hrs by MTT assay
Type: functional
Details: MDA-MB-453, 72 h
Could you please mark 1 (yes) for values of GI50 below 400 nM and 0 (no) for values at or above it?

The following molecules have reported results that may help.
> print(dat)
                                  smilesstr  assignedcategory
1  Cc1nc(N(C2CCCC2)C2CCCC2)sc1-c1ccnc(Nc2ccc(N3CCNCC3)cn2)n1           1 (yes)
2  CC(=O)N1CCN(c2ccc(Nc3nccc(-c4sc(N(C)C5CCCC5)nc4C)n3)nc2)CC1            0 (no)

Q: Lab note: GI50 threshold 400 nM. Does this molecule come in strictly under it? CCN1CCN(c2ccc(Nc3nccc(-c4sc(NC5CCCC5)nc4C)n3)nc2)CC1
Result: 1 (yes)

Q: Regarding Cc1nc(NC(C)C)sc1-c1ccnc(Nc2ccc(N3CCCNCC3)cn2)n1 , kindly confirm whether its GI50 is beneath 400 nM.
Result: 0 (no)

Q: Confirm or reject: GI50 of FC(F)(F)c1nc(NC2CCCC2)sc1-c1ccnc(Nc2ccc(N3CCOCC3)cn2)n1 lies strictly below 400 nM
Result: 0 (no)

Q: Threshold test, GI50 < 400 nM: Cc1nc(N(C)c2ccccc2)sc1-c1ccnc(Nc2ccc(N3CCN(C)CC3)cn2)n1
Result: 1 (yes)

* * *

Molecular target: Cyclin-dependent kinase 7/ cyclin H (Homo sapiens)
Assay: Inhibition of CDK7/cyclin H (unknown origin) in presence of [gamma-33P]-ATP […]
Conditions: read-out: Ki(app)
pKi: −log10 of the molar value.
Overview of recorded pKi for various compounds

The recorded pKi for Cc1nc(N(C)c2ccccc2)sc1-c1ccnc(Nc2ccc(N3CCN(C)CC3)cn2)n1 is < 5.30

# pKi of Cc1nc(NC(C)C)sc1-c1ccnc(Nc2ccc(N3CCOCC3)cn2)n1 = < 5.30

// pKi value for Cc1nc(N(C2CCCC2)C2CCCC2)sc1-c1ccnc(Nc2ccc(N3CCNCC3)cn2)n1 : < 5.30
